Target: T1, serum resistance-associated protein (SRA) from Trypanosoma brucei rhodesiense, recombinant SRA (SEQ ID NO: … (Trypanosoma brucei rhodesiense, UniProt O96637 31-274))
T1 construct: also called SRA protein
T1 sequence: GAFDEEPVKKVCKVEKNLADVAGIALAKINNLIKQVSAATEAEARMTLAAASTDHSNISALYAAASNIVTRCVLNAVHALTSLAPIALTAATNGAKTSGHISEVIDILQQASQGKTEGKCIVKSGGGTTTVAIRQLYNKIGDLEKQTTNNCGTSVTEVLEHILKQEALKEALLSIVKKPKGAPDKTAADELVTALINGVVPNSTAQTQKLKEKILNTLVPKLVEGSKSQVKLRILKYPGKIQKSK
Experiment: SPR, mAb captured, pH 4.5, 25C; competitor biotin-apoL1 peptide
value-kind: % Blocking, apoL1 peptide (%)
Your answer should be a plain number; it is taken to be in %.

Consider the worked cases shown below.
H2aM10201N (antibody, V domains shown, Chimeric antibody, human variable domains and mouse constant domains (mouse Fc, prefix H2aM); also called H2M10201N) VH: QVQLLESGGGVVQPGKSLRLSCVASGSIFSIYGMNWVRQAPGKGLEWVASVSSDGSAKFYADSVKGRFTISRDNSNDTLFLQMTSLRAEDTAVYYCAKTLWNYLFDSWGQGTLVTVSS VL: ENVLTQSPDTLSLSPGERATLSCRASQSITSNYLAWYQQKPGQTPRLLISFTSRRATGIPDRFSGSGSGTVFTLTISRLEPEDFAVYYCQQYGTSLTFGGGAKVEIR : 61
H1H10056P (antibody, V domains shown, Fully human antibody with human IgG1 Fc (prefix H1H)) VH: QVQLVESGGGVVQPGRSLRLSCSASGFTFSLYGMHWIRQAPGKGLEWVAVISYDGSNTYYGDSVKGRFTISRDNSKNTLYLQMNSLRTEDTAIYYCAKVYNWNYLFDYWGQGTLVTVSS VL: EIVLTQSPDTLSLSPGERATLSCRASQNVNNNFLAWYQQKPGQAPRLLIYGASSRATDIPERFSGSGSGTDFTLTISRLEPEDFAVYYCLHYVNSRTFGQGTKVEIK : 100
H1H10027P (antibody, V domains shown, Fully human antibody with human IgG1 Fc (prefix H1H)) VH: EVQLVESGGALVQPGRSLTLSCAASGFTFDDYTMHWVRQTPGKGLEWVSGILWNSDNLVYADSVKGRFTISRDNAKNSLYLQMNSLRVEDTALYYCTKEIDYLTLGGNAFDVWGQGTMVTVSS VL: DIQMTQSPSTLSASVGDRITITCRASQNINYWLAWYQQKPGKAPKLLIYKASSLAGGVPSRFSGSGSGTDFTLTINSLQPDDFATYYCQKYNTYSLNFGGGTKVEIK : -24

[ask] For the binder H1H10026P (antibody, V domains shown, Fully human antibody with human IgG1 Fc (prefix H1H)) VH: QVQLVESGGGVVQPGRSLRLSCEASGFTFSIYGMHWVRQAPGKGLEWVAVISYDGTNRYYADSVKGRFTISRDNSKNTLYLQMNSLRAEDTAVYYCAKVNIWNFLFDYWGQGTLVTVSS VL: EIVLTQSPGTLSLSPGERATLSCRASQSVSGNYLAWYQQKPGQAPRLLIYGPSSRATGIPDRFSGSGSGTDFTLTISRLEPEDFAVYYCQQYGTSLTFGGGTKVEIK , what % Blocking, apoL1 peptide is on record?
[reply] 19

[ask] For the binder H1H10067P (antibody, V domains shown, Fully human antibody with human IgG1 Fc (prefix H1H)) VH: QVQLQESGPGLVKPSQTLSLTCIVSGGSISSGDYYWNWIRQHPGKGLEWIGDIYHSGDTYYNPSLKSRVTISLDTSKNQFSLKLSSLTAADTAVYYCARDRIVATGGGMDVWGQGTTVTVSS VL: DIQMTQSPSTLSASVGDRVTITCRASQSISSWLAWYQRKPGKAPNLLIYRSSSLESGVPSRFSGSGSGTEFTLTISSLQADDFVIYYCQQYNSYPYTFGQGTKLEIK , what % Blocking, apoL1 peptide is on record?
[reply] -16
